system: Hck (UniProt P08631)
Sequence (P08631 whole entry, looked up): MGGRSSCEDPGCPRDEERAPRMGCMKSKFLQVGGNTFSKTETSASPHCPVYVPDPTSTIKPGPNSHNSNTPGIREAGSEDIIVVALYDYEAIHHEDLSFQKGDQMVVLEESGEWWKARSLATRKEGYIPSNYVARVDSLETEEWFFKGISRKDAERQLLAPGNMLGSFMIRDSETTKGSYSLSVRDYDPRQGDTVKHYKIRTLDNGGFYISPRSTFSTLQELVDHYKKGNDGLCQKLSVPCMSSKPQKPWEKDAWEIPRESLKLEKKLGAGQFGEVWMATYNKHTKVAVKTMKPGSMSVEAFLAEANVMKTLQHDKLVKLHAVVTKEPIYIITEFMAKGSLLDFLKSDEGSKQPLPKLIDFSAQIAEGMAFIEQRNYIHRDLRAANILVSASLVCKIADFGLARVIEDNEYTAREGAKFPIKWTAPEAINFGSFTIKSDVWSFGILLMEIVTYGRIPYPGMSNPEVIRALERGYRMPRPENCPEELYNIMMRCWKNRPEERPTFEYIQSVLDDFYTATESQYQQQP
test-summary: phosphorylation enrichment, bacterial display (enrichment ratio); higher = better substrate or ligand; peptides without Tyr show the background;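 note: 11-residue human phosphosite peptides and single-mutation variants displayed on the E. coli surface, counted by deep sequencing, each peptide's frequency after selection divided by its frequency in the unselected input library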;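 note: frequency after pTyr selection over input frequency; kinase dosed for 20-30% of maximal phosphorylation in three min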
# label = bin(measured phosphorylation enrichment), where bins are low (below 0.5), mid (0.5 to below 0.7), high (0.7 or more)

// bin(item) where item = ATARPYRPFII [LRP5_Y1528_YF] low

Request: RRNNSYTCFTA [SLC20A2_Y386_YF] high

Request: GLALRYLSDHS [VWF_Y1584] mid

Request: YHRQLYHKCTH [F12_Y58] mid

Request: PVQAAYQKVVD [HBB_Y131_A136D] high

Request: TENAGYFFRVS low

Request: DIPIRYSITGV [CDH4_Y205] low

Request: SLLPDYEDEEE [ZNF830_Y159] mid

Request: NSFKYYMSDDI [ATRX_Y204_C200S] low

Request: HAVYVYDICHV [TWNK_Y508] high

Request: DTQNSYRCATS [TSC1_Y304_G305R] low

Request: LGRTVYADCLA [ABCA4_Y2063_L2060R] high

Request: FPKAHYHWLVL [APTX_Y214_R213H_YF] low

Request: SVMAEYGLYAA [VSX2_Y219_G223A] high

Request: DVQNAYDSNHC [ZFYVE16_Y36] mid

Request: EFSNQYKATIG [RAB7A_Y37_K32E] low

Request: IFGASYVPFAA [RBM47_Y541_YF] high

Request: KLIETYSSKNY [PLP1_Y50_F51S] mid

Request: GLALRCLSDHS [VWF_Y1584_Y1584C] mid

Request: VQEDIYDEFVV [ALDH2_Y332_E337V] high

Request: PLCPDYQEPSR [DDR2_Y481_R478C] high

Request: GRQWNYVASML [KLHL4_Y552_S557L] low

Request: ILGRFYETGSI [PAX2_Y73_YF] low

Request: IMVFVYSRVFQ [ADRB2_Y219] low

Request: TSIGNYFKPWF [DHCR24_Y299_N294T_YF] low
